Tested on: 519858-162-T-J1-PDC complex spheroid growth, % test/control
Test: Anticancer human tumor 519858-162-T-J1-PDC patient-derived colon adenocarcinoma cell line growth inhibition [Asc]
Settings: second compound 0.00949 µM; first compound 0.1 µM; active compounds read low
Source text: Multicellular complex tumor spheroid response to apoptosis pathway targeting inhibitors Alrizomadlin, Pelcitoclax, and Dasminapant in combination with a variety of drugs and investigational agents in selected tumor cell lines […] Compounds. […] If the clinical Cmax for an agent had not been determined, the highest concentration tested was 10 microM. […]
reported.metric: viability, T/C (%)
Give the quantity in %, number only.

Determine its reported viability, T/C: C#Cc1c(F)ccc2cc(O)cc(-c3ncc4c(N5CC6CCC(C5)N6)nc(OCC56CCCN5CC(F)C6)nc4c3F)c12 (centres undefined) + CCN1C(C(=O)NC23CCC(C(=O)O)(CC2)CC3)C(c2cccc(Cl)c2F)C2(C(=O)Nc3cc(Cl)ccc32)C12CCCCC2 104

Give me measured viability, T/C, please, for this molecule: CNC(C)C(=O)NC1CN(S(=O)(=O)c2cccc(S(=O)(=O)N3CCC4CCC(C(=O)NC(c5ccccc5)c5ccccc5)N4C(=O)C(NC(=O)C(C)NC)C3)c2)CCC2CCC(C(=O)NC(c3ccccc3)c3ccccc3)N2C1=O (centres undefined) + CCN1C(C(=O)NC23CCC(C(=O)O)(CC2)CC3)C(c2cccc(Cl)c2F)C2(C(=O)Nc3cc(Cl)ccc32)C12CCCCC2 64.4

Please report the measured viability, T/C for Cn1ncnc1[C@H]1c2n[nH]c(=O)c3cc(F)cc(c23)N[C@@H]1c1ccc(F)cc1 + CCN1C(C(=O)NC23CCC(C(=O)O)(CC2)CC3)C(c2cccc(Cl)c2F)C2(C(=O)Nc3cc(Cl)ccc32)C12CCCCC2 98.1

Identify measured viability, T/C associated with C=C(F)C(=O)N1CCN(c2nc(OCC3CCCN3C)nc3c2CCN(c2cccc4cccc(Cl)c24)C3)CC1CC#N (centres undefined) + CCN1C(C(=O)NC23CCC(C(=O)O)(CC2)CC3)C(c2cccc(Cl)c2F)C2(C(=O)Nc3cc(Cl)ccc32)C12CCCCC2 80.6

----------
test system: 519858-162-T-J1-PDC complex spheroid growth, % test/control; experiment: Anticancer human tumor 519858-162-T-J1-PDC cell line growth inhibition [Asc]; settings: second compound 0.316 µM; first compound 0.00949 µM; active compounds read low;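 also: seven day drug exposure begun three days after spheroid seeding; 100% = DMSO vehicle wells and lower values mean less viable spheroid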
I'd appreciate it if you could supply viability, T/C values for the items below.
Answer in %, number only, no unit symbol.

Identify the reported viability, T/C for the following entry. CCN1C(C(=O)NC23CCC(C(=O)O)(CC2)CC3)C(c2cccc(Cl)c2F)C2(C(=O)Nc3cc(Cl)ccc32)C12CCCCC2 (stereo not drawn) + CNC(C)C(=O)NC1CN(S(=O)(=O)c2cccc(S(=O)(=O)N3CCC4CCC(C(=O)NC(c5ccccc5)c5ccccc5)N4C(=O)C(NC(=O)C(C)NC)C3)c2)CCC2CCC(C(=O)NC(c3ccccc3)c3ccccc3)N2C1=O 96

Please give measured viability, T/C of the following entry: Cc1nc(N2CCC3(CC2)COC(C)C3N)c(CO)nc1Sc1ccnc(N)c1Cl (stereo not drawn) + CNC(C)C(=O)NC1CN(S(=O)(=O)c2cccc(S(=O)(=O)N3CCC4CCC(C(=O)NC(c5ccccc5)c5ccccc5)N4C(=O)C(NC(=O)C(C)NC)C3)c2)CCC2CCC(C(=O)NC(c3ccccc3)c3ccccc3)N2C1=O 96.9

Given the molecule CCN1C(C(=O)NC23CCC(C(=O)O)(CC2)CC3)C(c2cccc(Cl)c2F)C2(C(=O)Nc3cc(Cl)ccc32)C12CCCCC2 (stereo not drawn) + Cc1c(S(C)(=O)=O)c(-c2cc(F)cc(N3CCN(c4ccc(NS(=O)(=O)c5ccc(NC(CCN6CCC(C(=O)OCCCP(=O)(O)O)CC6)CSc6ccccc6)c(S(=O)(=O)C(F)(F)F)c5)cc4)CC3)c2)c(-c2ccc(Cl)cc2)n1C(C)C , write its reported viability, T/C. 80.8
